- MEASURED_ON: Beta-secretase 1 (Homo sapiens, UniProt P56817)
- Sequence (P56817 whole entry): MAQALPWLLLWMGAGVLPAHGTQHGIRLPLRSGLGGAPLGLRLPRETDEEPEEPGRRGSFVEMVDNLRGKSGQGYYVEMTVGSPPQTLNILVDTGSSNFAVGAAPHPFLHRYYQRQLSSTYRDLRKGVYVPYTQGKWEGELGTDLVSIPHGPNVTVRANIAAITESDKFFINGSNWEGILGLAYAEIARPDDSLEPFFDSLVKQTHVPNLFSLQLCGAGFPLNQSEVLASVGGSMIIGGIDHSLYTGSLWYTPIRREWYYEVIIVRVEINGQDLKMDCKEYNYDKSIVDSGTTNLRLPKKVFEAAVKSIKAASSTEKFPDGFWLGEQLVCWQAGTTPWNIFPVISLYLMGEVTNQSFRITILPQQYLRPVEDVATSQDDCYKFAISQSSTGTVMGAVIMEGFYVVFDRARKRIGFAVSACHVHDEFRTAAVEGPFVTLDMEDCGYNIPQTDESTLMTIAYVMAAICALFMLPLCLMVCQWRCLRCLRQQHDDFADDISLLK
- ASSAY_PROTOCOL: Inhibition of BACE1 (unknown origin) at 10 ug/ml after 1 hr by FRET assay
OBSERVABLE: inhibition (%)
Entry rule: numbers only, all in %.

COMPOUND: CCOC(=O)CCC(=O)Nc1nc(-c2ccccc2)cs1
RESULT_UNITS: %
inhibition: 31.8
--
COMPOUND: O=C(/C=C/c1ccccc1)Nc1nc(-c2ccccc2)cs1
RESULT_UNITS: %
inhibition: 23.6
--
COMPOUND: O=C(Nc1nc(-c2ccccc2)cs1)c1ccncc1
RESULT_UNITS: %
inhibition: 29.1
--
COMPOUND: CCOC(=O)CCC(=O)NC1=NC2CCCCC2S1 (stereo not given)
RESULT_UNITS: %
inhibition: 26.7

Per the record, COc1cc(/C=C/C(=O)Nc2nc(-c3ccccc3)cs2)cc(OC)c1 has inhibition of 24.5
